Assign melting point to each entry below.

Req: Let me know recorded melting point for CN(C(=O)CN)c1ccc(N/C(=C2\C(=O)Nc3ccc([N+](=O)[O-])cc32)c2ccccc2)cc1 , thanks.
Resp: 255 to 256 °C

Req: Read off the recorded melting point for CC(=O)N(CCN1CCOCC1)c1ccc(N/C(=C2\C(=O)Nc3ccc([N+](=O)[O-])cc32)c2ccccc2)cc1
Resp: 229 °C

Req: For CN(C)CCN(c1cccc(N/C(=C2\C(=O)Nc3ccccc32)c2ccc(CN)cc2)c1)S(C)(=O)=O , write its melting point.
Resp: 161 °C

Req: Identify measured melting point corresponding to CN(C)C(=O)CN(c1cccc(N/C(=C2\C(=O)Nc3ccccc32)c2ccccc2)c1)S(C)(=O)=O
Resp: 213 to 216 °C

Req: Identify the reported melting point for the following entry. CC(=O)N(C)c1ccc(N/C(=C2\C(=O)Nc3ccccc32)c2ccccc2)cc1
Resp: 287 to 288 °C

Req: Please supply the value of reported melting point for the item CCOC(=O)CN(C)C(=O)c1cccc(N/C(=C2\C(=O)Nc3ccccc32)c2ccccc2)c1
Resp: 148 to 150 °C

Req: Supply melting point value. Item: O=CN(CCN1CCOCC1)c1ccc(N/C(=C2\C(=O)Nc3ccccc32)c2ccccc2)cc1
Resp: 218 °C

Req: Output melting point of CCS(=O)(=O)N(CC(=O)NCCN(C)C)c1ccc(N/C(=C2\C(=O)Nc3ccccc32)c2ccccc2)cc1
Resp: 203 °C

Req: Consider the compound O=C1Nc2ccc([N+](=O)[O-])cc2/C1=C(/Nc1ccc(CNC2CCCC2)cc1)c1ccccc1 and give its recorded melting point.
Resp: 231 °C

Req: For the compound CN(C(=O)CN)c1ccc(N/C(=C2\C(=O)Nc3ccccc32)c2ccccc2)cc1 , give its reported melting point.
Resp: 238 to 239 °C

Req: Tell me melting point reported for O=C1Nc2ccc([N+](=O)[O-])cc2/C1=C(/Nc1ccc(N2CCOCC2)cc1)c1ccccc1
Resp: > 300 °C

Req: Dear colleague, please send me the reported melting point for CN1C(=O)/C(=C(\Nc2cccc(C#N)c2)c2ccccc2)c2ccccc21 when you can.
Resp: 158 to 160 °C

Req: Input CCC1CCN(Cc2ccc(N/C(=C3\C(=O)Nc4ccc([N+](=O)[O-])cc43)c3ccccc3)cc2)CC1 , output reported melting point.
Resp: 225 to 227 °C

Req: Give the measured melting point for O=C1Nc2ccccc2/C1=C(/Nc1ccc(OCCN2CCCCC2)cc1)c1ccccc1
Resp: 198 to 200 °C

Req: // Input: Cc1ccc(S(=O)(=O)N(CC(=O)N(C)C)c2ccc(N/C(=C3\C(=O)Nc4ccc([N+](=O)[O-])cc43)c3ccccc3)cc2)cc1 . Output its melting point only.
Resp: 198 to 200 °C

Req: Supply measured melting point of CC(=O)NCc1ccc(/C(Nc2cccc(N(CCCN(C)C)S(C)(=O)=O)c2)=C2/C(=O)Nc3ccccc32)cc1 in your reply.
Resp: 208 °C

Req: Let me know recorded melting point for O=CNc1ccc(N/C(=C2\C(=O)Nc3ccccc32)c2ccccc2)cc1 , thanks.
Resp: 268 to 269 °C

Req: # return recorded melting point for input CN(C)C(=O)C1CCN(Cc2ccc(N/C(=C3\C(=O)Nc4ccc([N+](=O)[O-])cc43)c3ccccc3)cc2)CC1
Resp: 272 to 273 °C

Req: Indicate its recorded melting point; the compound in question is O=C1Nc2ccc([N+](=O)[O-])cc2/C1=C(/Nc1ccc(CNC2CC2)cc1)c1ccccc1
Resp: 220 to 221 °C (dec.)

Req: Identify measured melting point associated with CC(=O)O.N=C(N)c1ccc(N/C(=C2\C(=O)Nc3ccccc32)c2ccccc2)cc1
Resp: > 260 °C (dec.)

Req: Please give the documented melting point of CN(C)CC(=O)NCc1ccc(N/C(=C2\C(=O)Nc3ccccc32)c2ccccc2)cc1
Resp: 200 to 205 °C

Req: Indicate its recorded melting point; the compound in question is CNC(=O)CN(c1ccc(N/C(=C2\C(=O)Nc3ccccc32)c2ccccc2)cc1)S(C)(=O)=O
Resp: 268 to 270 °C

Req: State, in one line, measured melting point of CNC(=O)CN(C(C)=O)c1ccc(N/C(=C2\C(=O)Nc3ccccc32)c2ccccc2)cc1
Resp: 270 °C (dec.)

Req: Given the compound CCN(CC)C(=O)c1ccc(N/C(=C2\C(=O)Nc3ccccc32)c2ccccc2)cc1 , write its reported melting point.
Resp: 202 to 204 °C

Req: Please look at this compound and report its melting point: CC(=O)NCC(=O)N(C)c1ccc(N/C(=C2\C(=O)Nc3ccc([N+](=O)[O-])cc32)c2ccccc2)cc1
Resp: 277 to 278 °C

Req: Could you please provide reported melting point for CC(=O)N(CC(=O)O)c1ccc(N/C(=C2\C(=O)Nc3ccccc32)c2ccccc2)cc1 ? Thanks!
Resp: 276 °C (dec.)

Req: Using the record for CCC(=O)Nc1ccc(N/C(=C2\C(=O)Nc3ccccc32)c2ccccc2)cc1 , state its measured melting point.
Resp: 255 to 256 °C

Req: Return melting point (reported value) for this compound: Cl.NC(Cc1ccc(N/C(=C2\C(=O)Nc3ccc([N+](=O)[O-])cc32)c2ccccc2)cc1)C(=O)O (stereo not shown)
Resp: 225 °C (dec.)

Req: Fill in reported melting point for this entry: O=C1Nc2ccc([N+](=O)[O-])cc2/C1=C(/Nc1ccc(Br)cc1)c1ccc(Cn2ccnc2)cc1
Resp: 260 to 265 °C

Req: Look up melting point of COc1ccc(/C(Nc2ccc(CN(C)C)cc2)=C2/C(=O)Nc3ccccc32)cc1 and report it.
Resp: 206 to 207 °C

Req: Assign melting point to the following record: O=C1Nc2ccc([N+](=O)[O-])cc2/C1=C(/Nc1ccc(CCN2CC=CCC2)cc1)c1ccccc1
Resp: 249 to 254 °C (dec.)
